Biological target: C-X-C chemokine receptor type 5 (Homo sapiens)
Sequence (P32302 whole entry): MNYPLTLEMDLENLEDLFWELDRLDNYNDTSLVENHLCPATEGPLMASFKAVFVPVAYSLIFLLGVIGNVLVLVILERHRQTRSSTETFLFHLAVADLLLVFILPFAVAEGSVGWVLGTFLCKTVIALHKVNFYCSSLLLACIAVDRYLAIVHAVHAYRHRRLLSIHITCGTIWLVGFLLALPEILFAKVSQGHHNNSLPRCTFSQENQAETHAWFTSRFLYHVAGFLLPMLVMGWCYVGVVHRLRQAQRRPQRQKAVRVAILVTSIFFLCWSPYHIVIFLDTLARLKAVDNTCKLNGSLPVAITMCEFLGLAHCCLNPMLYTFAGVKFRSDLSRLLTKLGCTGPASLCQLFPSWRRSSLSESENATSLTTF
Assay: Antagonist activity against human CXCR5 expressed in RBL cells assessed as inhibition of human CXCL13-induced intracellular Ca2+ level by fluo-4/AM dye based FLIPR assay
pIC50: −log10 of the molar value.
Measured attribute: pIC50

See these solved cases before continuing.
QUERY: Name the recorded pIC50 of the compound listed here: Cc1cccc(C(=O)NC2(C(=O)O)Cc3ccc(F)cc3C2)c1CC(C)C (stereo not drawn)
RESULT: 7.82

QUERY: Quote pIC50 reported for CC(C)=Cc1c(C)cccc1C(=O)NC1(C(=O)O)Cc2cc(F)c(F)cc2C1 please.
RESULT: 7.82

QUERY: Name the recorded pIC50 of the compound listed here: Cc1cccc(C(=O)N[C@]2(C(=O)O)Cc3ccc(F)cc3C2)c1CC(C)C (single isomer, unassigned)
RESULT: 7.52

QUERY: Given the compound CC(C)=Cc1c(C)cccc1C(=O)NC1(C(=O)O)Cc2ccc(Cl)cc2C1 (stereo not drawn) , write its reported pIC50.
RESULT: 8.05

P. O=C(NC1(C(=O)O)Cc2ccccc2C1)c1cc(F)cc2c1OCOC2
Q. C=CCOc1c(Cl)cc(Cl)cc1S(=O)(=O)NC1(C(=O)O)Cc2ccccc2C1
R. Cc1cccc(C(=O)NC2(C(=O)O)Cc3ccccc3C2)c1OC1CCC1
S. CC(C)=Cc1c(C(=O)NC2(C(=O)O)Cc3ccccc3C2)cccc1C(F)(F)F
T. CCC(C)Oc1c(C)cccc1C(=O)NC1(C(=O)O)Cc2ccccc2C1 (stereo not drawn)
QUERY: Rank entries according to their pIC50, from the largest number down. Please, when replying, give the labels in the order that was requested.
RESULT: S, R, T, Q, P
(S: 7.59, R: 6.33, T: 5.97, Q: 4.89, P: 4.52)

* * *

Molecular target: C-X-C chemokine receptor type 5 (Homo sapiens)
Experiment: Antagonist activity against human CXCR5 expressed in RBL cells assessed as inhibition of human CXCL13-induced intracellular Ca2+ level by fluo-4/AM dye based FLIPR assay
Measured attribute: IC50 (µM)

QUERY: Supply measured IC50 of O=C(NC1(C(=O)O)Cc2ccc(C(F)(F)F)cc2C1)c1cccc2c1CCCC2 (centres undefined) in your reply.
RESULT: 6.1

A. Cc1cccc(C(=O)NC2(C(=O)O)Cc3ccc(F)cc3C2)c1OC1CCC1 (centres undefined)
B. CCCC#Cc1c(C)cccc1C(=O)NC1(C(=O)O)Cc2ccccc2C1
C. O=C(NC1(C(=O)O)Cc2ccccc2C1)c1cccc2ccccc12
QUERY: Order the 3 compounds from highest to lowest IC50. # respond with the labels, arranged in the requested order
RESULT: B, C, A
